Target: TWEAKR (TNFRSF12A, FN14), human, on tumor cell lines (human, UniProt Q9NP84 28-129)
Assay: cell-based or functional assay
Exercise: for every item that follows, state its recorded Fold induction of Caspase 3/7, HT-29 cells, 100 ug/ml.
Quick note: give the figure in fold, leave out the unit.

Fold induction of Caspase 3/7, HT-29 cells, 100 ug/ml lookup needed for TPP-1858 (antibody, human IgG1, kappa, V domains shown, Human IgG1) VH: EVQLLESGGGLVQPGGSLRLSCAASGFTFSPYPMMWVRQAPGKGLEWVSYISPSGGKTHYADSVKGRFTISRDNSKNTLYLQMNSLRAEDTAVYYCARGGDTYFDYFDYWGQGTLVTVSS VL: DIQMTQSPATLSASVGDRVTITCRASQSISSYLNWYQQKPGKAPKLLIYNASSLQSGVPSRFSGSGSGTDFTLTISSLQPEDFATYYCQQSYTSPFITFGPGTKVEIKR , thanks.
2.41

Fold induction of Caspase 3/7, HT-29 cells, 100 ug/ml lookup needed for TPP-1854 (antibody, human IgG1, kappa, V domains shown, Human IgG1) VH: EVQLLESGGGLVQPGGSLRLSCAASGFTFSPYPMIWVRQAPGKGLEWVSYISPSGGKTHYADSVKGRFTISRDNSKNTLYLQMNSLRAEDTAVYYCARGGDTYFDYFDYWGQGTLVTVSS VL: DIQMTQSPATLSASVGDRVTITCRASQSISGYLNWYQQKPGKAPKLLIYNASSLQSGVPSRFSGSGSGTDFTLTISSLQPEDFATYYCQQSYTSPFITFGPGTKVEIKR , thanks.
2.7

Fold induction of Caspase 3/7, HT-29 cells, 100 ug/ml lookup needed for P4A8(TPP-1324) (antibody, human IgG1, kappa, V domains shown, Human IgG1; variable domains from WO2009/140177 with constant region added) VH: QVQLVQSGAEVKKPGASVKVSCKGSGYTFTDYGMHWVRQAPGQGLEWMGVISTYNGYTNYNQKFKGRVTMTVDKSTSTAYMELRSLRSDDTAVYYCARAYYGNLYYAMDYWGQGTLVTVSS VL: DIVLTQSPASLAVSLGQRATISCRASKSVSTSSYSYMHWYQQKPGQPPKLLIKYASNLESGVPARFSGSGSGTDFSLNIHPMEEDDTAMYFCQHSRELPFTFGGGTKLEIKR , thanks.
1.49

Fold induction of Caspase 3/7, HT-29 cells, 100 ug/ml lookup needed for TPP-1857 (antibody, human IgG1, kappa, V domains shown, Human IgG1) VH: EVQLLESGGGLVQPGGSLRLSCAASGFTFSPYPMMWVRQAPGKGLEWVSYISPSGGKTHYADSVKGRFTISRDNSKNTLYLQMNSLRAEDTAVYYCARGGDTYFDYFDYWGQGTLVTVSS VL: DIQMTQSPATLSASVGDRVTITCRASQSISGYLNWYQQKPGKAPKLLIYNASSLQSGVPSRFSGSGSGTDFTLTISSLQPEDFATYYCQQSYTSPGITFGPGTKVEIKR , thanks.
2.37

Fold induction of Caspase 3/7, HT-29 cells, 100 ug/ml lookup needed for 136.1(TPP-2194) (antibody, mouse IgG2a, kappa, V domains shown, Murine IgG2a; variable domains from WO2009/020933 with constant region added) VH: EVKLEESGGGLVQPGGSMKLSCVASGFTFNNYWMSWVRQSPEKGLEWLAEIRLKSDNYATHYAESVKGKFTISRDDSKSRLYLQMNNLRAENTGIYYCTGGFADYFDYWGQGTTLTVSS VL: DIVLTQSPASLTVSLGQRATISCRASQSVSTSSYSYMQWYQQRPGQPPKLLIKYATNLDSGVPARFSGSGSGTDFTLNIHPVEEEDAATYYCQHSWEIPYTFGGGTKLEIKR , thanks.
1.81

Fold induction of Caspase 3/7, HT-29 cells, 100 ug/ml lookup needed for TPP-2093 (antibody, human IgG1, kappa, V domains shown, Human IgG1) VH: EVQLLESGGGLVQPGGSLRLSCAASGFTFSPYPMMWVRQAPGKGLEWVSYISPSGGSTHYADSVKGRFTISRDNSKNTLYLQMNSLRAEDTAVYYCARGGDTYFDYFDYWGQGTLVTVSS VL: DIQMTQSPSSLSASVGDRVTITCRASQSISSYLNWYQQKPGKAPKLLIYQASSLQSGVPSRFSGSGSGTDFTLTISSLQPEDFATYYCQQSYTSPFITFGQGTKVEIKR , thanks.
2.54

Fold induction of Caspase 3/7, HT-29 cells, 100 ug/ml lookup needed for TPP-1853 (antibody, human IgG1, kappa, V domains shown, Human IgG1) VH: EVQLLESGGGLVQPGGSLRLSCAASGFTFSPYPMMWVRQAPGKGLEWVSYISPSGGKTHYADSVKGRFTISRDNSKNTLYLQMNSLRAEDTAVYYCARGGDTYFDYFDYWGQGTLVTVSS VL: DIQMTQSPATLSASVGDRVTITCRASQSISSYLNWYQQKPGKAPKLLIYNASSLQSGVPSRFSGSGSGTDFTLTISSLQPEDFATYYCQQSYTSPGITFGPGTKVEIKR , thanks.
2.53

Source of measurements: patent US20160237160A1
